meta.source: patent US9980943B2

# System: α7 integrin (LacZ reporter in α7βgal+/− myoblasts)
# assay_explanation: Myoblast α7+/LacZ integrin FDG assay (Burkin assay in myoblasts, 96-well)
# Type: cell-based, mouse
# measurement_conditions: 5 uM; α7+/LacZ myoblasts, 96-well
Burkin Assay in Myoblasts, signal relative to DMSO by entry:
Reply: number alone, nothing else.

Consider the worked cases shown below.
> print(dat)
                                    molecule  numeric.readout
 1  COc1ccccc1CC(=O)Nc1cc(S(=O)(=O)N2CCOCC2)ccc1N1CCOCC1           1.0982
 2  COc1ccc(NC(=O)C2(N(C(=O)Cn3nnnc3N)c3ccc(OC)cc3)CCCCC2)cc1             1.49
 3   C/C(=N\NC(=O)c1cc(C)oc1C)c1ccc2ccccc2c1           1.2722
 4  CCCN(C(=O)c1ccc(S(=O)(=O)N2CCCC2)cc1)C1CCS(=O)(=O)C1 (centres unmarked)           0.9386
 5  CN(CC(=O)Nc1cccc(F)c1)C(=O)c1ccc(-c2ccc(Cl)cc2)o1           0.9583
 6  CCC(=O)c1ccc(OCC(O)CN2CC(C)OC(C)C2)cc1.O=C(O)C(=O)O (centres unmarked)           0.9766
 7  Cc1ccc(NCc2nnc(SCC(=O)Nc3nnc(C)s3)n2C)cc1           0.8233
 8  O=C(COC(=O)Cn1cnc2ccccc21)Nc1cccc([N+](=O)[O-])c1           0.9346
 9  O=C(Nc1ccccc1OC(=O)c1ccc(Cl)cc1)c1ccc(Cl)cc1           0.9523
10  Cl.O=C1C2CCCN2C(=O)N1CCCN1CCN(c2cccc(Br)c2)CC1 (centres unmarked)             1.05

# context switch: different molecule, same Burkin Assay in Myoblasts, signal relative to DMSO
Report Burkin Assay in Myoblasts, signal relative to DMSO for COCCSc1ccccc1C(=O)Nc1cc(C)cc(C)c1 please. 1.044
